Data provenance: the RNAGym collection of RNA variant scans (doi:10.1126/science.aae0568)

B1: tRNA (parent)
chain: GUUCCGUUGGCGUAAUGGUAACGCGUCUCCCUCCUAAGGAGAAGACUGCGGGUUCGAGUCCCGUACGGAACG

variants of: B1; assay: yeast fitness relative to wild type (ratio to wild type); higher = fitter; tRNA-Arg(CCU), competitive growth, 37 C, YPD
Variants at the floor of the assay were thinned out.
experimental_readout: yeast fitness
Quick one: just the number, no unit, thanks!

Problem: Requested read-out: yeast fitness. Entry: C27A A70U
Solution: 0.962

Problem: Check U3A A43C too.
Solution: 0.883

Problem: Check G6A G12A too.
Solution: 0.764

Problem: Check U35A A45C too.
Solution: 0.576

Problem: Check C29G C30U G58A too.
Solution: 0.608

Problem: Check A20U C61G too.
Solution: 0.712

Problem: Check U2C C30U C33U too.
Solution: 0.512

Problem: Check G12A G18A U19C C55U A57C G58C too.
Solution: 0.638

Problem: Check C5A C31A C55A C61A G63A too.
Solution: 0.671

Problem: Check C5G U19G too.
Solution: 0.916

Problem: Check U19C G25C G51C C60U G67A too.
Solution: 0.545
